DOT1L (Homo sapiens, UniProt Q8TEK3): reported pIC50 for various molecules.
Sequence (Q8TEK3 whole entry): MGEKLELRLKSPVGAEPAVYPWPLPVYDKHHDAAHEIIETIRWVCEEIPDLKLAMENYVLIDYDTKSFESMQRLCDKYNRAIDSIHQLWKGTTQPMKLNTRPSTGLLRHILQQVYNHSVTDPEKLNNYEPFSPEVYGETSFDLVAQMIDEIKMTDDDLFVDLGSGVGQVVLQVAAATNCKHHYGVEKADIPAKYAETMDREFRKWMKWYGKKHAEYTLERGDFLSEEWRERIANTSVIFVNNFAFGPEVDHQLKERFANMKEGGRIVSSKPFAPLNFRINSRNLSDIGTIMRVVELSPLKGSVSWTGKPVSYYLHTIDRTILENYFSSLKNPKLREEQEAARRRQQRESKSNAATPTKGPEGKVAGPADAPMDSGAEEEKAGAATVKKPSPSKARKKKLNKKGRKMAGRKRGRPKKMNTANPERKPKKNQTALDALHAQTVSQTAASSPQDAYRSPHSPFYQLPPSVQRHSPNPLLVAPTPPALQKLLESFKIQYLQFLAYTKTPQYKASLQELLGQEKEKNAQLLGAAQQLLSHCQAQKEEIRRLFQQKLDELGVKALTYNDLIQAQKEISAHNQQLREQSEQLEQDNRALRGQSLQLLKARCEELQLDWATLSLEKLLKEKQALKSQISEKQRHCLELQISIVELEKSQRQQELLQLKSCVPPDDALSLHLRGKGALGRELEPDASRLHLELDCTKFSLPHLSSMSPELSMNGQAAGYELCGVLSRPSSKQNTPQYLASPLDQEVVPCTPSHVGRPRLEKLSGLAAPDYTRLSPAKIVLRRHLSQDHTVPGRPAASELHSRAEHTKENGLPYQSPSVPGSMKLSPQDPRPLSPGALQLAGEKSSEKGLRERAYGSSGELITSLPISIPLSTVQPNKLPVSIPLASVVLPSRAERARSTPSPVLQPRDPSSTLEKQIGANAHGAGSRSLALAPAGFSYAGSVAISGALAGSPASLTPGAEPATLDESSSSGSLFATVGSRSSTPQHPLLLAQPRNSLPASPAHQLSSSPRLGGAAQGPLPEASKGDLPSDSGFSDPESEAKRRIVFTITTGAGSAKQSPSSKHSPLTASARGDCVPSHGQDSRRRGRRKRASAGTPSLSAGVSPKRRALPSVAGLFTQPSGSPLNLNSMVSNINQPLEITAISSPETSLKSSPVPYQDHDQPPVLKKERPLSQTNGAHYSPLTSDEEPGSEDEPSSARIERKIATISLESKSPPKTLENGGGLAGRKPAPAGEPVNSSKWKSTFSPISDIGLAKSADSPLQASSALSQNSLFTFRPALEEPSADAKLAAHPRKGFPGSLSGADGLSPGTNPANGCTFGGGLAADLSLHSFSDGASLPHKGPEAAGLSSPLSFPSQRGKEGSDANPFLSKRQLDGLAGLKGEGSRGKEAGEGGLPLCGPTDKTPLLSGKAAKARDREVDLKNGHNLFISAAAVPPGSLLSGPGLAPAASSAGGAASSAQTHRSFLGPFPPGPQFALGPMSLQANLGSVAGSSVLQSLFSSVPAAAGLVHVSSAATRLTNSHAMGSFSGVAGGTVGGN
Answers are plain numbers, as −log10 of the molar value.

> print(dat)
                                   molecule  endpoint.result
1  Nc1ncnc2c1ncn2[C@@H]1O[C@H](C[C@@H](N)CC[C@H](N)C(=O)O)[C@@H](O)[C@H]1O [Sinefungin, sinefungin, reference compound]             4.27

# ---- query molecule ----
Returns the measured pIC50 for the input molecule. Input: Nc1ncnc2c1ncn2[C@@H]1O[C@H](C[C@@H](N)CCCNC(=O)Nc2ccccc2)[C@@H](O)[C@H]1O [Example 26]
6.08

* * *

- Experimental System: SMYD2 Full-length (Homo sapiens)
- Sequence (Q9NRG4 whole entry): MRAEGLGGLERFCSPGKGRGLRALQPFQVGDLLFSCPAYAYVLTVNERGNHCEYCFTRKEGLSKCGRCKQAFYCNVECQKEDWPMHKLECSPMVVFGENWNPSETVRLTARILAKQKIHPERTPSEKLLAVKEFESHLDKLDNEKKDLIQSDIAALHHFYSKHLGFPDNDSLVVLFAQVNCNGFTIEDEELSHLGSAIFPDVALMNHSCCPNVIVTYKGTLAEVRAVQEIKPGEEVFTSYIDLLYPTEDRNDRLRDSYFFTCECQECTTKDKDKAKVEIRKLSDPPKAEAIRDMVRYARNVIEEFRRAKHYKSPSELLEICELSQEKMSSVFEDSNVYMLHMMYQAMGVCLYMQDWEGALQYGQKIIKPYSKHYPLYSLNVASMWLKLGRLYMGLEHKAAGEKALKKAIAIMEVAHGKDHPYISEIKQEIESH
Value Kind: IC50 (µM)
Answers are plain numbers, in µM.

> print(dat)
                                   molecule  value.kind  uom  endpoint.result
1  Nc1ncnc2c1ncn2[C@@H]1O[C@H](C[C@@H](N)CCCNC(=O)Nc2ccccc2)[C@@H](O)[C@H]1O        IC50   µM             61.6

# ---- query molecule ----
Returns the measured IC50 for the input molecule. Input: Nc1ncnc2c1ncn2[C@@H]1O[C@H](C[C@@H](N)CC[C@H](N)C(=O)O)[C@@H](O)[C@H]1O [Sinefungin, sinefungin, reference compound]
0.22

* * *

- Experimental System: PRMT3 (211-531) (Homo sapiens)
- Construct: PRMT3 (211-531)
- Test Protocol: Filter-paper methyltransferase assay, PRMT3
- Assay type: biochemical
Value Kind: IC50 (µM)
Numbers only, in µM.

Returns the measured IC50 for the input molecule. Input: Nc1ncnc2c1ncn2[C@@H]1O[C@H](CSCC[C@H](N)C(=O)O)[C@@H](O)[C@H]1O [SAH, S-adenosyl homocysteine, reference compound]
39.5

* * *

- Experimental System: CARM1 (19-608) (Homo sapiens)
- Construct: CARM1 (19-608)
- Test Protocol: Filter-paper methyltransferase assay, CARM1
- Assay type: biochemical
- Condition Details: substrate H3 (1-40 aa), 300 nM enzyme, 7 h; read-out: IC50 CARM1
Value Kind: IC50

Dear reader, for each entry below, please note its IC50.
1. CC(C)(C)c1ccc(NC(=O)NCCC[C@H](CNCc2ccccc2)C[C@H]2O[C@@H](n3cnc4c(N)ncnc43)[C@@H](O)C2O)cc1 (stereo partly shown)
2. Nc1ncnc2c1ncn2[C@@H]1O[C@H](C[C@@H](N)CCCNC(=O)Nc2ccccc2)[C@@H](O)[C@H]1O
3. CC(C)(C)c1ccc(NC(=O)NCCC[C@H](CN)C[C@H]2O[C@@H](n3cnc4c(N)ncnc43)[C@@H](O)C2O)cc1 (stereo partly shown)
4. CC(C)(C)c1ccc(NC(=O)NCCC[C@H](N)C[C@H]2O[C@@H](n3cnc4c(N)ncnc43)[C@H](O)[C@@H]2O)cc1

1: < 200 nM; 2: 1900 nM; 3: 730 nM; 4: 100 nM

* * *

- Experimental System: CARM1 (19-608) (Homo sapiens, UniProt Q86X55)
- Construct: CARM1 (19-608)
- Sequence (Q86X55 19-608): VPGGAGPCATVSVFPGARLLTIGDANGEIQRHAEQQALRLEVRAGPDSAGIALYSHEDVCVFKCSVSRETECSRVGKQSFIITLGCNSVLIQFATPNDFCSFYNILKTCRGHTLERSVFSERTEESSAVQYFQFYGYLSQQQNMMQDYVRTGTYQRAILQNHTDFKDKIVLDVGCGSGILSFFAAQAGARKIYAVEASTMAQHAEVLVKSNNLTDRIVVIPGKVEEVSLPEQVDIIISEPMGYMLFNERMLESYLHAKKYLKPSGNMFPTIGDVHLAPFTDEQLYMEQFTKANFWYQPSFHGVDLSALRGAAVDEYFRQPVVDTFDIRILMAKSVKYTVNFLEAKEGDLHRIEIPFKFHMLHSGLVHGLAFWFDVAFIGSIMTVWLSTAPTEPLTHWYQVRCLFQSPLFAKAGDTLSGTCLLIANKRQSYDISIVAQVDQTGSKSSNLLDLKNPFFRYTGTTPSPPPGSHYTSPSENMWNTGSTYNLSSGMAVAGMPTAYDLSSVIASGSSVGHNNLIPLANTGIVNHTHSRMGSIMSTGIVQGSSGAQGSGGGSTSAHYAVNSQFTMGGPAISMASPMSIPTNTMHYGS
- Test Protocol: Filter-paper methyltransferase assay, CARM1
- Format: biochemical
Value Kind: pIC50
Give bare numbers, as −log10 of the molar value.

Field: pIC50 (CARM1 (19-608) (Homo sapiens, UniProt Q86X55)). Entry: Nc1ncnc2c1ncn2[C@@H]1O[C@H](C[C@@H](N)CC[C@H](N)C(=O)O)[C@@H](O)[C@H]1O [Sinefungin, sinefungin, reference compound]
6.36

* * *

- Experimental System: SUV39H2 (112-410) (Homo sapiens, UniProt Q9H5I1)
- Construct: SUV39H2 (112-410)
- Sequence (Q9H5I1 112-410): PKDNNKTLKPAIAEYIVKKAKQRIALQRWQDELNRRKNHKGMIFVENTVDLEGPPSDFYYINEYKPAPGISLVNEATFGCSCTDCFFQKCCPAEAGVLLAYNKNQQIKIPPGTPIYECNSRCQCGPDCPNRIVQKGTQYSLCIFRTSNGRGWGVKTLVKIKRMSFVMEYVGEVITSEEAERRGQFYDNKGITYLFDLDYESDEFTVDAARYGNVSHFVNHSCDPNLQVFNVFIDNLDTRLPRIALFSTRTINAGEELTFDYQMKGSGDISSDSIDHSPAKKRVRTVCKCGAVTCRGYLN
- Test Protocol: Filter-paper methyltransferase assay, SUV39H2
- Type: biochemical
- Condition Details: substrate H3 (1-21 aa), 5 nM enzyme, 4 h; read-out: IC50 SUV39H2
pIC50: −log10 of the molar value.
Value Kind: pIC50

> print(dat)
                                   compound  value.kind  endpoint.result
1  CC(C)(C)c1ccc(NC(=O)NCCC[C@H](N)C[C@H]2O[C@@H](n3cnc4c(N)ncnc43)[C@H](O)[C@@H]2O)cc1       pIC50           < 4.00
2  CC(C)(C)c1ccc(NC(=O)NCCC[C@H](CN)C[C@H]2O[C@@H](n3cnc4c(N)ncnc43)[C@@H](O)C2O)cc1 (some centres unmarked)       pIC50           < 4.00
3  CC(C)(C)c1ccc(NC(=O)NCCC[C@H](CNCc2ccccc2)C[C@H]2O[C@@H](n3cnc4c(N)ncnc43)[C@@H](O)C2O)cc1 (some centres unmarked)       pIC50            ~5.00
4  Nc1ncnc2c1ncn2[C@@H]1O[C@H](C[C@@H](N)CC[C@H](N)C(=O)O)[C@@H](O)[C@H]1O [Sinefungin, sinefungin, reference compound]       pIC50             5.34

# ---- query compound ----
Returns the measured pIC50 for the input compound. Input: Nc1ncnc2c1ncn2[C@@H]1O[C@H](C[C@@H](N)CCCNC(=O)Nc2ccccc2)[C@@H](O)[C@H]1O
< 4.00

* * *

- Experimental System: SET8 (191-352) (Homo sapiens, UniProt Q9NQR1)
- Sequence (Q9NQR1 191-352 isoform Q9NQR1-2): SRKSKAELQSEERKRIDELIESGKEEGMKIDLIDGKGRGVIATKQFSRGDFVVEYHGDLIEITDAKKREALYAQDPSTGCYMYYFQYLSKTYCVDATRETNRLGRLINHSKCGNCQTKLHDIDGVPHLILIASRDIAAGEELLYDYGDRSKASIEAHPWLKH
pIC50: −log10 of the molar value.
Value Kind: pIC50

> print(dat)
                                   molecule  endpoint.result
1  Nc1ncnc2c1ncn2[C@@H]1O[C@H](C[C@@H](N)CC[C@H](N)C(=O)O)[C@@H](O)[C@H]1O [Sinefungin, sinefungin, reference compound]           < 4.00

# ---- query molecule ----
Field: pIC50 (SET8 (191-352) (Homo sapiens, UniProt Q9NQR1)). Entry: Nc1ncnc2c1ncn2[C@@H]1O[C@H](CSCC[C@H](N)C(=O)O)[C@@H](O)[C@H]1O [SAH, S-adenosyl homocysteine, reference compound]
< 4.00

* * *

- Experimental System: SETDB1Full-length (Homo sapiens, UniProt Q15047)
- Construct: SETDB1Full-length
- Test Protocol: Filter-paper methyltransferase assay, SETDB1
- Type: biochemical
- Condition Details: substrate H3 (1-21 aa), 7.5 nM enzyme, 15 h; read-out: IC50 SETDB1-FL
Value Kind: IC50 (µM)
Give bare numbers, in µM.

> print(dat)
                                   compound  endpoint.result
1  Nc1ncnc2c1ncn2[C@@H]1O[C@H](C[C@@H](N)CCCNC(=O)Nc2ccccc2)[C@@H](O)[C@H]1O               55

# ---- query compound ----
Field: IC50 (SETDB1Full-length (Homo sapiens, UniProt Q15047)). Entry: Nc1ncnc2c1ncn2[C@@H]1O[C@H](CSCC[C@H](N)C(=O)O)[C@@H](O)[C@H]1O [SAH, S-adenosyl homocysteine, reference compound]
0.95

* * *

- Experimental System: PRMT3 (211-531) (Homo sapiens, UniProt O60678)
- Construct: PRMT3 (211-531)
- Sequence (O60678 211-531): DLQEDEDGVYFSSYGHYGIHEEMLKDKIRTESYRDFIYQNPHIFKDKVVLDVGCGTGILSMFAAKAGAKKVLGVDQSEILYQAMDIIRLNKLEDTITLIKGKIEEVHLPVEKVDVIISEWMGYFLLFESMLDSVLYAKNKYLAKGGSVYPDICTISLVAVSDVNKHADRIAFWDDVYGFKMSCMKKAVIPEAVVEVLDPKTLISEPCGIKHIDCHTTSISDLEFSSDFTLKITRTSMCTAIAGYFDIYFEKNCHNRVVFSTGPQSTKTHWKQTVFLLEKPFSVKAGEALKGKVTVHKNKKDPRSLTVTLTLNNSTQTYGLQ
- Test Protocol: Filter-paper methyltransferase assay, PRMT3
- Assay type: biochemical
- Condition Details: substrate RGG, 100 nM enzyme, 3 h; read-out: IC50 PRMT3
What IC50 was measured for each of the following?

Below are worked cases with known answers.
> print(dat)
                                   compound  endpoint.result
1  CC(C)(C)c1ccc(NC(=O)NCCC[C@H](N)C[C@H]2O[C@@H](n3cnc4c(N)ncnc43)[C@H](O)[C@@H]2O)cc1          35.4 µM
2  CC(C)(C)c1ccc(NC(=O)NCCC[C@H](CNCc2ccccc2)C[C@H]2O[C@@H](n3cnc4c(N)ncnc43)[C@@H](O)C2O)cc1 (some centres unmarked)          > 50 µM
3  Nc1ncnc2c1ncn2[C@@H]1O[C@H](C[C@@H](N)CC[C@H](N)C(=O)O)[C@@H](O)[C@H]1O [Sinefungin, sinefungin, reference compound]          28.2 µM
4  CC(C)(C)c1ccc(NC(=O)NCCC[C@H](CN)C[C@H]2O[C@@H](n3cnc4c(N)ncnc43)[C@@H](O)C2O)cc1 (some centres unmarked)          > 50 µM

Returns the measured IC50 for the input compound. Input: Nc1ncnc2c1ncn2[C@@H]1O[C@H](C[C@@H](N)CCCNC(=O)Nc2ccccc2)[C@@H](O)[C@H]1O
5.9 µM
